Cited source: PubChem BioAssay (NCATS)

test_protocol: qHTS for Hypoxia signaling pathway (HIF-1) antagonists against the NCATS CANVASS Library (AID 1347374); further: nearly all actives have a fitted effect of over 60% in size
measurement_conditions: HRE-bla ME-180 cells, HIF-1 beta-lactamase reporter, CoCl2; series mostly up to 38.3 µM
Results filed as inconclusive are left out. Calls of active or inactive are those of the source. The call rests on the fitted dose curve; in most records, active means well fitted inhibition curve with a large enough effect; inconclusive means small, poorly fitted or top-dose-only effect; inactive means no such curve, though single readings can be large or run the other way.
Your answer must be one of the following: active, inactive

compound	answer_label
C[C@H]1C[C@@H]([C@@H]2CC[C@]34O[C@H](CC[C@@]35C[C@H](C)C(=O)O5)CN24)OC1=O	inactive

Tell me the assay call for "CN1C(=O)[C@]23SS[C@@]1(C)C(=O)N2[C@H]1Nc2ccccc2[C@]1(c1c[nH]c2ccccc12)[C@@H]3O" please.
active

====

test_protocol: qHTS for Inhibitors of Plasmodium falciparum (7G8) proliferation (AID 504316); further: nearly all actives have a fitted effect of over 65% in size
measurement_conditions: P. falciparum 7G8 in erythrocytes, SYBR Green DNA, 72 h; series mostly up to 6.7 µM
Results filed as inconclusive are left out. The source made the active and inactive calls. Calls come from the whole dose curve; as a rule, active = well fitted inhibition curve with a large enough effect; inconclusive = small, poorly fitted or top-dose-only effect; inactive = flat fitted curve, though single readings scatter.
Your answer must be one of the following: YES for active, NO for inactive

A selection of reference data follows.
molecule	answer_label
CC(CCC(=O)OC[C@H]1O[C@H](C#Cc2ccccc2)C=C[C@H]1Oc1ccc(C)cc1)=NOC[C@@H](O)[C@H]1O[C@@H]2OC(C)(C)O[C@H]2[C@@H]1O	NO
O=C1CCCC=C1C(O)CCOCc1ccccc1 (stereo not drawn)	NO
CCN1C(=NCc2cc(OC)c(OC)c(OC)c2)NC(c2ccccc2)C(C(=O)OC)=C1C (stereo not drawn)	NO

Tell me the assay call for C=CCOC(=O)NC(c1ccc(F)c(F)c1)C(C(C)=O)C(=O)OC (stereo not drawn) please.
NO

Tell me the assay call for "C[C@@H]1C=CCCO[C@]12C(=O)N(Cc1ccc(Br)cc1)c1ccccc12" please.
NO

Tell me the assay call for "Cc1c(O)c(=O)c2ccccc2n1C" please.
NO

Tell me the assay call for "COC(=O)[C@@H]1[C@@H](c2ccccc2)NC(=O)N(Cc2ccccc2)[C@@H]1C" please.
NO

Tell me the assay call for "CCN1C(=O)[C@@H]2[C@H]3[C@H](O)[C@H](O)CC(=NO[C@H](C)CN4CCCc5nc(C)c(C)cc54)[C@@H]3CC[C@H]2C1=O" please.
NO

Tell me the assay call for "CC(C)(C)c1nc(-c2ccccc2)oc1Nc1ccc2ccccc2c1" please.
YES

Tell me the assay call for CCCC=CC1C(=O)[C@@H]2O[C@H]2C2(OCC(CC)(CC)CO2)C1CO (stereo partly drawn) please.
NO

Tell me the assay call for COC(=O)N1C2CC3(C)CC(=O)CC1(C)C3c1ccccc12 (stereo not drawn) please.
NO

Tell me the assay call for "O=C1C=C(c2ccccc2)CCC1" please.
NO

Tell me the assay call for "CCN1C(=NCCCOC(C)C)N[C@H](c2ccccc2)[C@H](C(=O)OC)[C@H]1C" please.
NO

====

test_protocol: qHTS for Activators of p53 Stress Response Pathway screened against the NCATS CANVASS Library (AID 1347388); further: potency means the concentration at half of the fitted maximal effect
measurement_conditions: p53RE-bla HCT-116, beta-lactamase reporter, 16 h; series mostly up to 46.1 µM
Results filed as inconclusive are left out. The source made the active and inactive calls. The call rests on the fitted dose curve; in most records, active means well fitted activation curve with a large enough effect; inconclusive means small, poorly fitted or top-dose-only effect; inactive means flat fitted curve, though single readings scatter. Numbered stars: 1 amine (or outer) side, 2 acyl side, 3 side chain; on linkers, the order of the positions; unused ones are H or OH. Square brackets hold non-standard residues; d marks the D form. Peptide text beside a SMILES is read from it. ξ: configuration not given here. X4 = O=C(C1CC2(c3ccc(O)cc3)c3ccccc3NC2N1[*:1])[*:2]; ξW = NC(Cc1c[nH]c2ccccc12)C(=O)O; ξY = NC(Cc1ccc(O)cc1)C(=O)O
endpoint_label: Potency

Some solved cases for reference:
compound	reported_result
CC[C@@H]1C[C@@]2(CC)OC(=O)[C@@]3(CC)OC(=O)[C@@H]1[C@@H]23	inactive
C[C@]12CC[C@]3(C1)[C@H](CC2=O)CC(OC(=O)c1ccccc1)[C@H]1[C@@](CO)(C(=O)O)CCC[C@@]13C (stereo not given in full)	inactive
CN1CCc2cc3c(c4c2[C@H]1[C@@H](O)c1ccccc1-4)OCO3	26.3 µM (active)
CC1=CC2=C[C@H](C)C[C@@]23OC(=C(C)C3=O)CC(C)(C)/C=C/C1=O	inactive

Query compound follows.
Fill blank: measured Potency of the compound CC[C@H](C)[C@H](NC(=O)C(Cc1ccc(O)cc1)NC(=O)C(Cc1c[nH]c2ccccc12)NC(=O)[C@H](C)N)C(=O)N1C(C(=O)NC(Cc2ccc(O)cc2)C(=O)O)CC2(c3ccc(O)cc3)c3ccccc3NC12 (stereo not given in full) (H-A[ξW][ξY]I[X4][ξY]-OH) is ____.
inactive

====

test_protocol: qHTS for Inhibitors of Plasmodium falciparum (7G8) proliferation (AID 504316); further: nearly all actives have a fitted effect of over 65% in size
measurement_conditions: P. falciparum 7G8 in erythrocytes, SYBR Green DNA, 72 h; series mostly up to 6.7 µM
Inconclusive results are not listed. The source made the active and inactive calls. Calls come from the whole dose curve; as a rule, active = well fitted inhibition curve with a large enough effect; inconclusive = small, poorly fitted or top-dose-only effect; inactive = flat fitted curve, though single readings scatter.
Your answer must be one of the following: active, inactive

A selection of reference data follows.
compound	answer_label
C#CCN1C(=O)[C@]2(O[C@H](C)CC3=CCCC32)c2c(Br)cccc21 (stereo partly drawn)	inactive
CC1=C[C@@H](COc2ccccc2)O[C@@]2(C1)C(=O)N(Cc1ccccc1)c1ccccc12	active
COC(=O)C(C(=O)OC)[C@@H]1O[C@@]23COCC[C@]2(C)[C@@H]3c2ccccc21	inactive
Cc1ccc(S(=O)(=O)n2c3ccccc3c3nnc(C(=O)c4ccccc4)nc32)cc1	inactive

Tell me the assay call for C=CCOC(=O)C(C(C)=O)[C@@H](NC(=O)OC)c1cccc(C)c1 (stereo partly drawn) please.
inactive

Tell me the assay call for "CCOC(=O)OC[C@H]1O[C@H](C#Cc2ccc(F)cc2F)C=C[C@H]1OC(=O)OCC" please.
inactive

Tell me the assay call for "C=COC[C@H]1CN2[C@H](c3ccc(Br)cc3)[C@H](C)CC[C@H]2C(=O)O1" please.
inactive

Tell me the assay call for "COc1cccc([C@H](O)Cn2cc(-c3ccc(CON=C(C)C)cc3)nn2)c1" please.
inactive

====

System: Es-2
test_protocol: Primary qHTS to identify gynecologic anti-cancer compounds using libraries of approved drugs and bioactive compounds (AID 1345084); further: nearly all actives have a fitted effect of over 55% in size
measurement_conditions: Gynecologic cancer cell panel viability, ATPlite luminescence, 48 h; series mostly up to 57.5 µM
Results filed as inconclusive are left out. Calls of active or inactive are those of the source. Calls follow the shape of the dose curve; as a rule, active = well fitted cell-killing curve with a large enough effect; inconclusive = small, poorly fitted or top-dose-only effect, or effect the other way; inactive = flat fitted curve, though single readings scatter.
Your answer must be one of the following: active, inactive

A selection of reference data follows.
molecule	assayed_target	answer_label
COc1ccc(NS(=O)(=O)c2sc3ccc(Cl)cc3c2C)cc1N1CCNCC1	Es-2	inactive
CCCCn1c(-c2ccccc2)nc(-c2ccccc2)c1CN(Cc1ccc2c(c1)OCO2)Cc1ccc2c(c1)OCO2	Es-2	inactive
CCN1CCC[C@@H]1CNC(=O)c1ccc2c(c1)NC(=O)/C(=C/c1ccccc1F)S2	Es-2	inactive
C=C1C(=O)O[C@@H]2CC(C)=C([C@@H](C)CCCO)[C@@H](OC(=O)C(C)C)[C@H]12	Es-2	inactive
CCN(CC)c1ccc(C(=C2C=CC(=[N+](CC)CC)C=C2)c2cc(S(=O)(=O)O)ccc2S(=O)(=O)[O-])cc1	Es-2	active

Attention now turns to another entry.
Tell me the assay call for "COc1cc(-c2cc(-c3cccc(O)c3)cnc2N)cc(OC)c1OC" please.
inactive

====

assayed_target: Alpha-galactosidase A (Homo sapiens)
test_protocol: Counterscreen for Glucocerebrosidase Inhibitors: qHTS Assay for Human alpha-Galactosidase at pH 4.5 (AID 992)
measurement_conditions: purified enzyme, fluorogenic substrate; series mostly up to 76.9 µM
Activity calls are given as the source filed them. Calls follow the shape of the dose curve; as a rule, active = well fitted curve in the direction sought with a large enough effect; inactive = no such curve, though single readings can be large or run the other way.

chemical_structure	assayed_target	outcome
O=C1N=C(O)CN1/N=C\c1ccc(-c2ccc([N+](=O)[O-])cc2)o1	Alpha-galactosidase A (Homo sapiens)	inactive
N[C@H](C(=O)O)[C@@H]1C[C@@H]1C(=O)O	Alpha-galactosidase A (Homo sapiens)	inactive
C=CCN1CCc2cc(O)c(O)cc2[C@H](c2ccccc2)C1	Alpha-galactosidase A (Homo sapiens)	inactive

====

assayed_target: Luciferin 4-monooxygenase (Photinus pyralis)
test_protocol: Primary firefly luciferase (FLuc) qHTS assay for identification of artifact compounds. (AID 1845220); further: nearly all actives have a fitted effect of over 60% in size; further: potency means the concentration at half of the fitted maximal effect
measurement_conditions: purified firefly luciferase, luminescence, 5 min; series mostly up to 54.1 µM
Active and inactive are the calls of the source. Calls follow the shape of the dose curve; as a rule, active = well fitted inhibition curve with a large enough effect; inconclusive = small, poorly fitted or top-dose-only effect; inactive = flat fitted curve, though single readings scatter.
endpoint_label: Potency

Some solved cases for reference:
compound	reported_result
COc1ccc(C2(CNC(=O)[C@](C)(Cc3c[nH]c4ccccc34)NC(=O)Nc3ccc([N+](=O)[O-])cc3)CCCCC2)nc1	inactive
NC(=Nc1ccc(CCNCc2cccc(Cl)c2)cc1)c1cccs1	inactive
COc1cc2ncnc(Oc3cccc(NC(=O)Nc4cc(C(C)(C)C(F)(F)F)on4)c3)c2cc1OC	inactive
Oc1ccc(Nc2nc(-c3ccc(Cl)cc3)cs2)cc1	4.78 µM (active)

Query compound follows.
Fill blank: measured Potency of the compound CC1CCC(n2c3cnccc3c3cnc(Nc4ccc5c(n4)CCN(C(=O)CO)C5)nc32)CC1 (stereo not given) is ____.
inactive
